// values below are reported EC50
- Measured target: human SIRT3 (Homo sapiens, UniProt Q9NTG7)
- Sequence (Q9NTG7 102-399): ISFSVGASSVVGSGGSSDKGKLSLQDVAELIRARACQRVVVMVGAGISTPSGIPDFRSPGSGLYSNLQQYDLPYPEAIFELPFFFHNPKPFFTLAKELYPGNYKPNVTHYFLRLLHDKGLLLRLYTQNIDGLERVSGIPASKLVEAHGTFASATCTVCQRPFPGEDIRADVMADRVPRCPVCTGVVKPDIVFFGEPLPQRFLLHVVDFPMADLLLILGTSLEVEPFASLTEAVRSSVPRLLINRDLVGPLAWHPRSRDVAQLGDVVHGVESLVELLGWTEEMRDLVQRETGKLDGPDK
- Protocol details: Fluorescence polarization assay to identify modulators of SIRT3 activity
- Experimental conditions: activation of SIRT3 (Table 5); read-out: ED50 (the source's name)

Below, 2 compounds whose answers are already recorded.
{"columns": ["Compound", "EC50"],
 "data": [
  ["CC(NC(=O)c1cccn2c(NCC3CCCO3)c(-c3ccc(N(C)C)cc3)nc12)C(=O)NCCC#N (stereo not drawn)", "> 150 µM"],
  ["CCCCNc1c(-c2ccc(OC)c([N+](=O)[O-])c2)nc2c(C(=O)NC(C)C(=O)O)cccn12 (stereo not drawn)", "51 to 100 µM"]
]}

Q) Write down EC50 measured for item COc1ccc(-c2nc3c(C(=O)NC(CC(=O)O)c4cccc(C)c4)cccn3c2Nc2c(C)cccc2C)cc1[N+](=O)[O-] (stereo not drawn)
A) > 150 µM

Q) Write down EC50 measured for item COc1ccc(-c2nc3c(C(=O)NC(C)C(=O)O)cccn3c2NCc2ccccc2)cc1[N+](=O)[O-] (stereo not drawn)
A) < 50 µM
